- experimental target: P-tau peptide (wild-type P-tau peptide and its pure cis or cis-locked, and pure trans counterparts)
- assay explanation: Biacore (SPR) with P-tau peptide
measured attribute: Kd (nM)
Quick reminder: number only, in nM, skip the unit.

Kd reported for this binder Cis-mAb HT14 (humanized) (antibody, V domains shown) VH: QVQLVQSGAELKKPGASVKMSCKASGYTFTSYWIHWVKQRPGQGLEWIGVIDPSDSYTRYNQKFKGRATLTVDTSASTAYMQLSSLTSEDSAVYYCTTWEVDYWGQGTTVTVSS VL: DVVMTQSPLSLPVTLGQPASISCRSSQSLVHSDGNTYLNWYLQKPGQSPQLLIYKVSNRFSGVPDRFSGSGSGTDFTLKISRVEAEDVGVYFCSQSTHVPWTFGGGTKVEIK : 30.2

Kd reported for this binder Cis-mAb HT3 (humanized) (antibody, V domains shown) VH: QVQLVQSGAEVKKPGASVKVSCKASGYTFTSYWIHWVRQRPGQGLEWIGVIDPSDSYTRYNQKFKGRVTLTVDTSASTAYMELSSLRSEDTAVYYCTTWEVDYWGQGTLVTVSS VL: DVVMTQSPLSLPVTLGQPASISCRSSQSLVHSDGNTYLHWYLQKPGQSPQLLIYKVSNRFSGVPDRFSGSGSGTDFTLKISRVEAEDVGVYFCSQSTHVPWTFGGGTKVEIK : 3.51

Kd reported for this binder Cis-mAb HT10 (humanized) (antibody, V domains shown) VH: QVQLVQSGAEVKKPGASVKMSCKASGYTFTSYWIHWVKQRPGQGLEWIGVIDPSDSYTRYNQKFKGRATLTVDTSASTAYMELSSLRSEDTAVYYCTTWEVDYWGQGTLVTVSS VL: DVVMTQSPLSLPVTLGQPASISCRSSQSLVHSDGNTYLHWYLQKPGQSPQLLIYKVSNRFSGVPDRFSGSGSGTDFTLKISRVEAEDVGVYYCSQSTHVPWTFGGGTKVEIK : 1.77
